Where a name gives a salt, the structure may show the parent alone.
PROPERTY NAME: melting point

# melting point (compound: `NC(=O)N(O)CCCc1ccc(OCCCN2CCN(C(c3ccc(F)cc3)c3ccc(F)cc3)CC2)cc1` ) is 30 to 80 °C

# melting point of `NC(=O)N(O)CCCCc1ccc(OCCCN2CCN([C@H](c3ccccc3)c3ccc(Cl)cc3)CC2)cc1` = 60 to 65 °C

Lookup result for `NC(=O)c1cc(C#CCCN(O)C(N)=O)ccc1OCCCN1CCN([C@H](c2ccccc2)c2ccc(Cl)cc2)CC1` ; measured melting point: 153 to 155 °C

Form: compound = NC(=O)c1cc(C#CCCN(O)C(N)=O)ccc1OCCN1CCN([C@H](c2ccccc2)c2ccc(Cl)cc2)CC1 (as salt: tartrate) [Compound 92] ; melting point = 155 to 158 °C

Value of melting point reported for the compound `NC(=O)N(O)CCCc1ccc(OCCCN2CCN([C@H](c3ccccc3)c3ccc(Cl)cc3)CC2)cc1` is 52 to 90 °C

// `NC(=O)N(O)CCCOc1ccc(CCCN2CCN([C@H](c3ccccc3)c3ccc(Cl)cc3)CC2)cc1` : melting point value = 64 to 66 °C

Then there is this compound:
The compound NC(=O)c1cc(C#CCCN(O)C(N)=O)ccc1OCCN1CCN([C@H](c2ccccc2)c2ccc(Cl)cc2)CC1 (as salt: fumarate) [Compound 89] showed melting point equal to 162 to 165 °C
